target-desc: SLC9A7
test-name: pooled miR-30 sensor sort-seq; sequence = guide strand; note: reference of the scale not given here
protocol-conditions: shRNA
Record true (1) whenever sensor-assay potency score (higher = more potent) is at -0.3 or higher; record false (0) when lower.

Please review the entries below; each comes with its answer.
TTGGTTATCGTACACCTGGGGA    false (0)
TACAACACCTGTAAATCCGCAG    true (1)
TTCATTCTGGTCCTCTTCGGAG    false (0)
TTTATCTGAGAGCTGTCCCATA    true (1)
TCGACTTCTTGATTCCACCGAC    true (1)
TAAGACTTGAAAGCTGTCGTTG    true (1)
TTTGGTAAACTTAGTCACGTTG    false (0)
TAATGAAGCATGAAACAGCAGT    false (0)

Could you now consider this next sequence?
// inclusive: sensor-assay potency score (higher = more potent) at least -0.3? input: `TTGAAAGCTGTCGTTGTTGGGT`
true (1)

* * *

target-desc: HEPH
test-name: pooled miR-30 sensor sort-seq; sequence = guide strand
protocol-conditions: shRNA
property-name: sensor-assay potency score (higher = more potent)

Would you mind listing sensor-assay potency score (higher = more potent) for each of the following sequences?
1. TATAGTAGATTCTTGCAGCTTG
2. TATCCTCTGAAAGCAGTCGGAA
3. AATGTAACCATAACTGTCCTTC

1. 0.849
2. -1.21
3. -0.181

Would you mind listing sensor-assay potency score (higher = more potent) for each of the following sequences?
1. TATGTCACTGTCCAGAGGCTGG
2. TTGTCAGACTTTAAGAAGCTGG
3. TGATATAGTAGATTCTTGCAGC

-1.3
-0.791
-0.0504

Would you mind listing sensor-assay potency score (higher = more potent) for each of the following sequences?
1. TACAGCTTTCTTGTATCTGGAA
2. TAGATGGTCTTCTTGTAGGTTC

-0.122
-0.407

* * *

target-desc: KCND2
test-name: pooled miR-30 sensor sort-seq; sequence = guide strand
protocol-conditions: shRNA
property-name: sensor-assay potency score (higher = more potent)
Answers are plain numbers.

Examples with answers:
ATTAACAGTTGCAACTTCCATG    -0.92
TTGTATACTACCTTGATGGCTT    0.674
TTCTGAGGCACAACTCTTCAGT    -0.605
TTACTGAGTAAACCATTCCGTT    -1.06
TTGTACTCCTCATAACAGCAGT    -0.753

Would you mind listing sensor-assay potency score (higher = more potent) for each of the following sequences?
1. TCAGCGAACAGATAGAACCAAA
2. TTGTGTCGTCGTGAACAGCAGG
3. TTGTCTGTCATCACCAGCCCAA
4. TTAAAGATCCTGAAGACCCGGA

1: -1.25; 2: -0.722; 3: -0.744; 4: 0.918

* * *

target-desc: SLC25A41
test-name: pooled miR-30 sensor sort-seq; sequence = guide strand
protocol-conditions: shRNA
Please provide measured sensor-assay potency score (higher = more potent) for the entries that follow.
Give bare numbers.

TAGAGCAAGTGTTCTGAGGTTC    0.286
TCCTGTGTCCAGTACCTGCTGT    -0.625

Would you mind listing sensor-assay potency score (higher = more potent) for each of the following sequences?
1. TATTCCACAGAAGTAATTCTTG
2. TTGGTGAAGTTCGTCTTGGAGG
3. TTCAAGGTTGTTGTCATGCATG
4. TTGCACTGCTCGAATACGGAGA
5. TAGACAGCCAGGTCGGTGCAGG

1: -0.218; 2: -1.22; 3: -1.11; 4: -0.376; 5: -0.911

* * *

target-desc: LIN7C
test-name: pooled miR-30 sensor sort-seq; sequence = guide strand
protocol-conditions: shRNA
property-name: sensor-assay potency score (higher = more potent)

Examples with answers:
TTTCTTCTAAGACTTTGGGTGT    -0.276
TAATATTGAATCCAAGGCCCTC    -0.834
TCTATCAGCAATTCCACCTGGA    1.09
TAGCGTTCGCTCTCACTTCAGG    -0.712

Would you mind listing sensor-assay potency score (higher = more potent) for each of the following sequences?
1. TCTACAAATATCTCTCTCCAGC
2. TTTTGGTAGCTCAACAACTCGA

[-1.02, -0.544]

Form field: sensor-assay potency score (higher = more potent) recorded for `TTCACTTTGAAGGACTCTTTGC` with LIN7C (enter value)
-0.329

* * *

Please provide measured sensor-assay potency score (higher = more potent) for the entries that follow.
target-desc: PHACTR4
test-name: pooled miR-30 sensor sort-seq; sequence = guide strand
protocol-conditions: shRNA
Answers are plain numbers.

TTCTTTAACATGGCATCGCTTG    -0.642

Would you mind listing sensor-assay potency score (higher = more potent) for each of the following sequences?
1. TTCCAGTTGAGCCTAGTCGTTT
2. TTAAACCTCAGAATCTTCCTGG
3. TTCCTTTTTCTGATCTTCCTGC
4. TTCATCTTCTTCATCTCGGTAC
5. TTAGGTTGCAATATATTGCGTT

-1.14
0.724
0.429
0.467
0.996

Would you mind listing sensor-assay potency score (higher = more potent) for each of the following sequences?
1. TTTGATAACAATGTACCACTGT
2. TTGATAACAATGTACCACTGTT

[0.882, -0.00481]

* * *

target-desc: CIAPIN1
test-name: pooled miR-30 sensor sort-seq; sequence = guide strand
protocol-conditions: shRNA
Please provide measured sensor-assay potency score (higher = more potent) for the entries that follow.
Answers are plain numbers.

TTAACATAAATGACAACAGGAC    -0.72
TGGTCTTTTGATACACAGCAGC    -1.52
TTGTTATCTACAGCTGTCTCTA    -0.353
TAAGCTGCCTAGAAGAACCCAC    0.616
TTGTGAGCCACTTGACTCGTGT    -0.0962
TTCTTCAGGACACACTCCCTTC    -0.89

Would you mind listing sensor-assay potency score (higher = more potent) for each of the following sequences?
1. TCTCAGAGTGAACAAATCCAGA
2. TGTGATCTGAACAAACAGCAGG
3. TGGAGTAAACTAACAACTCTGA

1: -1.26; 2: -0.776; 3: -0.493

* * *

target-desc: MUSTN1
test-name: pooled miR-30 sensor sort-seq; sequence = guide strand
protocol-conditions: shRNA
property-name: sensor-assay potency score (higher = more potent)
One number for each entry.

Examples with answers:
ACACTCTCGCATGACCTGGTAG    -0.661
TTGATTTCCTGGTTCTTGGTCA    0.114
AGCTTGCTCACACTCTCGCATG    -2.04

Would you mind listing sensor-assay potency score (higher = more potent) for each of the following sequences?
1. TCACACTCTCGCATGACCTGGT
2. TTTATTGGTGCTTCCAAGGTGC
3. TCTTGGTCAGGTTTCCTCGGGC

[0.595, 0.442, 0.0366]

* * *

target-desc: FANCG
test-name: pooled miR-30 sensor sort-seq; sequence = guide strand
protocol-conditions: shRNA
property-name: sensor-assay potency score (higher = more potent)
One number for each entry.

Examples with answers:
TAAATTCACTAATTGCCACTTT    0.314
TAGCTTTCTAGGTACAGGGGGA    -0.426
AGTAAGTGTCTCGATTACCTGG    -1.17
TGTGTCTCCAGCACTCTCTCTA    0.116
AAGTACAACAGTGCTCTCTGTG    0.113
TACAACAGTGCTCTCTGTGGAT    -0.172
TGCTGTGTACACCTGGACCAAC    -1.61
TATAGGAATGGTCACATTCCTA    -1.18

Would you mind listing sensor-assay potency score (higher = more potent) for each of the following sequences?
1. TAGTAATTCTACCTCAATGAGA
2. TTTTCTGGCATCTTCCCACAGC

[-0.931, -0.807]

* * *

target-desc: FAM73A
test-name: pooled miR-30 sensor sort-seq; sequence = guide strand
protocol-conditions: shRNA
Record Y whenever sensor-assay potency score (higher = more potent) is at -0.3 or higher; record N when lower.

TAGCATAGTTACAAACTTGAGA    Y
TTTAATATCATCTTCATCTGCT    Y

// inclusive: sensor-assay potency score (higher = more potent) at least -0.3? input: `TTAAGTATAAGTTCTCTGGAGT`
Y

// inclusive: sensor-assay potency score (higher = more potent) at least -0.3? input: `TTGAATAGCGCACCTTCTCAAA`
N

// inclusive: sensor-assay potency score (higher = more potent) at least -0.3? input: `TTGAACCTTTGTCTGATGCTGC`
Y

* * *

Please provide measured sensor-assay potency score (higher = more potent) for the entries that follow.
target-desc: STAP2
test-name: pooled miR-30 sensor sort-seq; sequence = guide strand
protocol-conditions: shRNA

TTCTTCTGTAGCTCTGCCGTCA    -0.496
TCTCATAGTAGTGTGAAGGCAG    0.0304
TACCTTGAACTTGATCTCCTGA    0.355

Would you mind listing sensor-assay potency score (higher = more potent) for each of the following sequences?
1. TTGAGCTTCTCCACGTGCTGGA
2. TAGCCTAGCACCTTCTCGTAGT
3. TTCTTCTCTAGAAAGCTCTCAT

0.441
-0.174
-0.00657
